- System: Staphylococcus aureus
- procedure-summary: Antimicrobial activity against methicillin-susceptible Staphylococcus aureus Smith by NCCLS method
- Format: functional
Below, each entry is listed alongside its reported MIC.
Could you give me the number in mg/L? Just the number is fine.

As a guide, the following entries are already answered.
C=C[C@]1(C)C[C@@H](OC(=O)CN2CCN(C(=O)CCn3cnc4c(N5CCC(CN)C5)ncnc43)CC2)[C@]2(C)[C@H](C)CC[C@]3(CCC(=O)[C@@H]32)[C@@H](C)[C@@H]1O.Cl.Cl (stereo partly drawn) | 0.25
C=C[C@]1(C)C[C@@H](OC(=O)CN2CCN(C(=O)CCn3cnc4c(N5CCC(N)C5)ncnc43)C(CC)C2)[C@]2(C)[C@H](C)CC[C@]3(CCC(=O)[C@@H]32)[C@@H](C)[C@@H]1O.Cl.Cl (stereo partly drawn) | 0.25

Continue with the compound presented below.
Prompt line: What measured MIC goes with C=C[C@]1(C)C[C@@H](OC(=O)CN2CCN(C(=O)CCn3cnc4c(N5CCC(N)C5)ncnc43)C[C@H]2C)[C@]2(C)[C@H](C)CC[C@]3(CCC(=O)[C@@H]32)[C@@H](C)[C@@H]1O.Cl.Cl (stereo partly drawn) ?
Response line: 0.25

###

- Tested on: Streptococcus pyogenes
- procedure-summary: Antimicrobial activity against Streptococcus pyogenes ATCC 112344 by NCCLS method
- Assay type: functional
measure-name: MIC (mg/L)
Give the value in mg/L but do not write mg/L after it.

Look over these answered cases.
C=C[C@]1(C)C[C@@H](OC(=O)CN2CCN(C(=O)CCn3cnc4c(N5CCNCC5)ncnc43)CC2)[C@]2(C)[C@H](C)CC[C@]3(CCC(=O)[C@@H]32)[C@@H](C)[C@@H]1O.Cl.Cl | 0.032
C=C[C@]1(C)C[C@@H](OC(=O)CN2CCN(C(=O)CCn3cnc4c(N5CCC(CN)CC5)ncnc43)CC2)[C@]2(C)[C@H](C)CC[C@]3(CCC(=O)[C@@H]32)[C@@H](C)[C@@H]1O.Cl.Cl | 0.032
C=C[C@]1(C)C[C@@H](OC(=O)CN2CCN(C(=O)CCn3cnc4c(N5CC[C@H](N)C5)ncnc43)[C@@H](C)C2)[C@]2(C)[C@H](C)CC[C@]3(CCC(=O)[C@@H]32)[C@@H](C)[C@@H]1O.Cl.Cl | 0.016
C=C[C@]1(C)C[C@@H](OC(=O)CN2CCN(C(=O)CCn3cnc4c(N5CCC(N)C5)ncnc43)C(C)(C)C2)[C@]2(C)[C@H](C)CC[C@]3(CCC(=O)[C@@H]32)[C@@H](C)[C@@H]1O.Cl.Cl (some centres not stated) | 0.016
C=C[C@]1(C)C[C@@H](OC(=O)CN2CCN(C(=O)CCn3cnc4c(N5CC[C@H](CNC)C5)ncnc43)CC2)[C@]2(C)[C@H](C)CC[C@]3(CCC(=O)[C@@H]32)[C@@H](C)[C@@H]1O.Cl.Cl | 0.032

Prompt line: Request - read-out MIC | tested on Streptococcus pyogenes | compound C=C[C@]1(C)C[C@@H](OC(=O)CN2CCN(C(=O)CCn3cnc4c(N5CCC(CN)C5)ncnc43)CC2)[C@]2(C)[C@H](C)CC[C@]3(CCC(=O)[C@@H]32)[C@@H](C)[C@@H]1O.Cl.Cl (some centres not stated)
Response line: 0.032

Prompt line: What MIC appears in the records for this compound with Streptococcus pyogenes? C=C[C@]1(C)C[C@@H](OC(=O)CN2CCN(C(=O)CCn3cnc4c(N5CCC(N)C5)ncnc43)CC2)[C@]2(C)[C@H](C)CC[C@]3(CCC(=O)[C@@H]32)[C@@H](C)[C@@H]1O.Cl.Cl (some centres not stated)
Response line: 0.032

###

- Tested on: Staphylococcus aureus
- procedure-summary: Antimicrobial activity against methicillin-susceptible Staphylococcus aureus infected iv dosed mouse assessed as survival rate after 1 hr of infection
- Format: functional
measure-name: ED50 (mg/kg)
Record the value in mg/kg, omitting the unit from your answer.

Solved entries (count: 7):
C=C[C@]1(C)C[C@@H](OC(=O)CN2CCN(C(=O)CCn3cnc4c(N5CCC(N)C5)ncnc43)CC2)[C@]2(C)[C@H](C)CC[C@]3(CCC(=O)[C@@H]32)[C@@H](C)[C@@H]1O.Cl.Cl (stereo partly drawn) | 0.8
C=C[C@]1(C)C[C@@H](OC(=O)CN2CCN(C(=O)CCn3cnc4c(N5CCNCC5)ncnc43)CC2)[C@]2(C)[C@H](C)CC[C@]3(CCC(=O)[C@@H]32)[C@@H](C)[C@@H]1O.Cl.Cl | 1.65
C=C[C@]1(C)C[C@@H](OC(=O)CN2CCN(C(=O)CCn3cnc4c(N5CCC(N)C5)ncnc43)C[C@H]2C)[C@]2(C)[C@H](C)CC[C@]3(CCC(=O)[C@@H]32)[C@@H](C)[C@@H]1O.Cl.Cl (stereo partly drawn) | 1.42
C=C[C@]1(C)C[C@@H](OC(=O)CN2CCN(C(=O)CCn3cnc4c(N5CC[C@H](CNC)C5)ncnc43)[C@@H](C)C2)[C@]2(C)[C@H](C)CC[C@]3(CCC(=O)[C@@H]32)[C@@H](C)[C@@H]1O.Cl.Cl | 1.1
C=C[C@]1(C)C[C@@H](OC(=O)CN2CCN(C(=O)CCn3cnc4c(N5CCC(N)C5)ncnc43)C(C)C2)[C@]2(C)[C@H](C)CC[C@]3(CCC(=O)[C@@H]32)[C@@H](C)[C@@H]1O.Cl.Cl (stereo partly drawn) | 1.39
C=C[C@]1(C)C[C@@H](OC(=O)CN2CCN(C(=O)CCn3cnc4c(N5CCC(N)C5)ncnc43)C(C)(C)C2)[C@]2(C)[C@H](C)CC[C@]3(CCC(=O)[C@@H]32)[C@@H](C)[C@@H]1O.Cl.Cl (stereo partly drawn) | 2.32
C=C[C@]1(C)C[C@@H](OC(=O)CN2CCN(C(=O)CCn3cnc4c(N5CC[C@H](CNC)C5)ncnc43)CC2)[C@]2(C)[C@H](C)CC[C@]3(CCC(=O)[C@@H]32)[C@@H](C)[C@@H]1O.Cl.Cl | 0.83

Consider now this further compound.
Prompt line: Which measured ED50 belongs to C=C[C@]1(C)C[C@@H](OC(=O)CN2CCN(C(=O)CCn3cnc4c(N5CCC(CNC)C5)ncnc43)CC2)[C@]2(C)[C@H](C)CC[C@]3(CCC(=O)[C@@H]32)[C@@H](C)[C@@H]1O.Cl.Cl (stereo partly drawn) , tested on Staphylococcus aureus?
Response line: 1.1

###

- Tested on: Staphylococcus aureus
- procedure-summary: Antimicrobial activity against methicillin-susceptible Staphylococcus aureus Smith by NCCLS method
- Type: functional
Measured MIC of individual entries
Give a bare numeral; the unit µg/mL is implied.

In the examples that follow, each entry is paired with its recorded MIC.
C=C[C@]1(C)C[C@@H](OC(=O)CN2CCN(C(=O)CCn3cnc4c(N5CCC(N)C5)ncnc43)CC2C)[C@]2(C)[C@H](C)CC[C@]3(CCC(=O)[C@@H]32)[C@@H](C)[C@@H]1O.Cl.Cl (stereo not given in full) | 0.25
C=C[C@]1(C)C[C@@H](OC(=O)CN2CCN(C(=O)CCn3cnc4c(N5CCC(CN)CC5)ncnc43)CC2)[C@]2(C)[C@H](C)CC[C@]3(CCC(=O)[C@@H]32)[C@@H](C)[C@@H]1O.Cl.Cl | 0.25
C=C[C@]1(C)C[C@@H](OC(=O)CN2CCN(C(=O)CCn3cnc4c(N5CCC(NCC)C5)ncnc43)CC2)[C@]2(C)[C@H](C)CC[C@]3(CCC(=O)[C@@H]32)[C@@H](C)[C@@H]1O.Cl.Cl (stereo not given in full) | 0.25
C=C[C@]1(C)C[C@@H](OC(=O)CN2CCN(C(=O)CCn3cnc4c(N5CCNCC5)ncnc43)CC2)[C@]2(C)[C@H](C)CC[C@]3(CCC(=O)[C@@H]32)[C@@H](C)[C@@H]1O.Cl.Cl | 0.125

Now turn to the next molecule.
Prompt line: Requested read-out: MIC. Entry: "C=C[C@]1(C)C[C@@H](OC(=O)CN2CCN(C(=O)CCn3cnc4c(N5CC[C@H](N)C5)ncnc43)[C@@H](C)C2)[C@]2(C)[C@H](C)CC[C@]3(CCC(=O)[C@@H]32)[C@@H](C)[C@@H]1O.Cl.Cl"
Response line: 0.25

###

- Test system: Streptococcus pyogenes
- procedure-summary: Antimicrobial activity against Streptococcus pyogenes ATCC 112344 by NCCLS method
- Type: functional
Attribute: MIC
Field: numeric (µg/mL). Do not append units.

# count of solved cases: 2
C=C[C@]1(C)C[C@@H](OC(=O)CN2CCN(C(=O)CCn3cnc4c(N5CCC(NC)C5)ncnc43)CC2)[C@]2(C)[C@H](C)CC[C@]3(CCC(=O)[C@@H]32)[C@@H](C)[C@@H]1O.Cl (stereo not given in full) | 0.032
C=C[C@]1(C)C[C@@H](OC(=O)CN2CCN(C(=O)CCn3cnc4c(N5CC[C@@H](CNC)C5)ncnc43)CC2)[C@]2(C)[C@H](C)CC[C@]3(CCC(=O)[C@@H]32)[C@@H](C)[C@@H]1O.Cl.Cl | 0.063

Prompt line: Consider the molecule "C=C[C@]1(C)C[C@@H](OC(=O)CN2CCN(C(=O)CCn3cnc4c(N5CC[C@H](CNC)C5)ncnc43)[C@@H](C)C2)[C@]2(C)[C@H](C)CC[C@]3(CCC(=O)[C@@H]32)[C@@H](C)[C@@H]1O.Cl.Cl" and give its measured MIC.
Response line: 0.032

Prompt line: Dear colleague, I am looking for the recorded MIC of the following molecule: C=C[C@]1(C)C[C@@H](OC(=O)CN2CCN(C(=O)CCn3cnc4c(N5CCC(N)C5)ncnc43)CC2C)[C@]2(C)[C@H](C)CC[C@]3(CCC(=O)[C@@H]32)[C@@H](C)[C@@H]1O.Cl.Cl (stereo not given in full)
Response line: 0.032

Prompt line: Query: MIC; subject: C=C[C@]1(C)C[C@@H](OC(=O)CN2CCN(C(=O)CCn3cnc4c(N5CCC(N)C5)ncnc43)C(C)C2)[C@]2(C)[C@H](C)CC[C@]3(CCC(=O)[C@@H]32)[C@@H](C)[C@@H]1O.Cl.Cl (stereo not given in full)
Response line: 0.032

Prompt line: Recorded MIC for C=C[C@]1(C)C[C@@H](OC(=O)CN2CCN(C(=O)CCn3cnc4c(N5CCC(CNC)C5)ncnc43)[C@@H](C)C2)[C@]2(C)[C@H](C)CC[C@]3(CCC(=O)[C@@H]32)[C@@H](C)[C@@H]1O.Cl.Cl (stereo not given in full) , please?
Response line: 0.063

Prompt line: What does the record list as MIC for "C=C[C@]1(C)C[C@@H](OC(=O)CN2CCN(C(=O)CCn3cnc4c(N5CCC(N)CC5)ncnc43)CC2)[C@]2(C)[C@H](C)CC[C@]3(CCC(=O)[C@@H]32)[C@@H](C)[C@@H]1O.Cl.Cl" ?
Response line: 0.032

Prompt line: Please report the recorded MIC for C=C[C@]1(C)C[C@@H](OC(=O)CN2CCCN(C(=O)CCn3cnc4c(N5CCC(N)C5)ncnc43)CC2)[C@]2(C)[C@H](C)CC[C@]3(CCC(=O)[C@@H]32)[C@@H](C)[C@@H]1O.Cl.Cl (stereo not given in full) .
Response line: 0.032

Prompt line: Find the recorded MIC belonging to C=C[C@]1(C)C[C@@H](OC(=O)CN2CCN(C(=O)CCn3cnc4c(N5CCC(N(C)C)C5)ncnc43)CC2)[C@]2(C)[C@H](C)CC[C@]3(CCC(=O)[C@@H]32)[C@@H](C)[C@@H]1O.Cl.Cl (stereo not given in full) and report it.
Response line: 0.063

Prompt line: Value lookup for MIC; key = C=C[C@]1(C)C[C@@H](OC(=O)CN2CCN(C(=O)CCn3cnc4c(N5CCC(N)C5)ncnc43)[C@H](C)C2)[C@]2(C)[C@H](C)CC[C@]3(CCC(=O)[C@@H]32)[C@@H](C)[C@@H]1O.Cl.Cl (stereo not given in full)
Response line: 0.063

Reference for the values: ChEMBL document CHEMBL1139278
